# Test system: RBM10 RRM1-ZnF-RRM2 (GST-tagged construct);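 note: 20 pmol protein with 1.5 nmol RNA pool for 30 min at 4°C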
# protocol-text: RNAcompete 7-mer binding Z-score; higher = stronger binding preference
Whole data set: some 16,000 sequences, median “Z-score” near -0.37, cut for the highest 2% near 3.1. The entries come from a sample that favours the highest values as a whole.
Entry flag: rule met if RNAcompete 7-mer binding Z-score reaches 2; rule not met if it does not.

Some solved entries appear below for comparison.
CUUAGCU rule not met
CAUGGCC rule not met
AUAGAGA rule not met

// query Form field: RNAcompete 7-mer binding Z-score at least 2? Entry: "AUGGGAG"
// result rule met

// query Evaluate "UUGGGAA" : RNAcompete 7-mer binding Z-score at minimum 2?
// result rule not met

// query Hello, I need to know if "UGACACA" has measured RNAcompete 7-mer binding Z-score not below 2. Thanks!
// result rule not met

// query Reported RNAcompete 7-mer binding Z-score reaches at least 2 for "ACUUCUU" ?
// result rule not met

// query Entry "AACGGGA" : is its RNAcompete 7-mer binding Z-score no less than 2?
// result rule met

// query Could you tell me if the measured RNAcompete 7-mer binding Z-score of "AAGGGCA" reaches 2 or more?
// result rule met

// query # check: RNAcompete 7-mer binding Z-score of "UAUGAAC" is greater than or equal to 2
// result rule not met

// query Does the reported RNAcompete 7-mer binding Z-score for "AUGGGGA" fall at or above the 2 mark?
// result rule met

// query Check if RNAcompete 7-mer binding Z-score >= 2 (inclusive). Item: "GACCCCC"
// result rule not met

// query # bool: RNAcompete 7-mer binding Z-score of "UUCUUAU" >= 2
// result rule not met

// query Given the entry "CCGCUAC" , answer whether its RNAcompete 7-mer binding Z-score meets or surpasses 2.
// result rule not met

// query Could you tell me if the measured RNAcompete 7-mer binding Z-score of "GACGGCG" reaches 2 or more?
// result rule not met

// query Check the entry "GAAAUCG" : does RNAcompete 7-mer binding Z-score equal or exceed 2?
// result rule not met

// query Is RNAcompete 7-mer binding Z-score for "GUGUUCA" at or above 2?
// result rule not met

// query hey, is RNAcompete 7-mer binding Z-score for this one >= 2? "UUGGGAG"
// result rule met

// query Could you verify whether the entry "AUGGGAA" shows RNAcompete 7-mer binding Z-score of no less than 2?
// result rule met

// query Check the entry "CGCCGAA" : does RNAcompete 7-mer binding Z-score equal or exceed 2?
// result rule not met

// query Answer whether RNAcompete 7-mer binding Z-score of "CAUUCUA" is greater than or equal to 2.
// result rule not met

// query Tell me whether RNAcompete 7-mer binding Z-score is at least 2 here: "GAAAAUG"
// result rule not met

---

# Test system: RBM10 RRM1-ZnF-RRM2 (GST-tagged construct);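 note: 20 pmol protein with 1.5 nmol RNA pool for 30 min at 4°C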
# protocol-text: RNAcompete 7-mer binding Z-score; higher = stronger binding preference
The full ranking holds about 16,000 sequences; the median of “Z-score” is about -0.37, and the highest 2% start at about 3.1. This excerpt belongs to a sample that is enriched for the highest values.
Classification field: enter 1 for RNAcompete 7-mer binding Z-score values not below 1, -1 for values below it.

UCGAGGG 1
UAAGGUA 1
UAAGGUG 1

// query Entry "CACGUUA" : is its RNAcompete 7-mer binding Z-score no less than 1?
// result -1

// query Say whether "CCGGAGG" shows RNAcompete 7-mer binding Z-score of 1 or more.
// result -1

// query Check the entry "CGGGUGG" : does RNAcompete 7-mer binding Z-score equal or exceed 1?
// result 1

// query Hi team, for "GUGGAGG" , is the recorded RNAcompete 7-mer binding Z-score at or above 1?
// result 1

// query Please tell me: is the sequence "AGGGCUA" at or over 1 in terms of RNAcompete 7-mer binding Z-score?
// result 1

// query Please check the record "CACCAUC" and state if its RNAcompete 7-mer binding Z-score is at or above 1.
// result -1

// query Check the entry "UGCACAU" : does RNAcompete 7-mer binding Z-score equal or exceed 1?
// result -1

// query Check this sequence for RNAcompete 7-mer binding Z-score at or above 1: "UCAUUAU"
// result -1

// query Item "UGAUUGA" with RNAcompete 7-mer binding Z-score of 1 or above?
// result -1

---

# System: RBM10 RRM1-ZnF-RRM2 (GST-tagged construct);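 note: 20 pmol protein with 1.5 nmol RNA pool for 30 min at 4°C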
# protocol-text: RNAcompete 7-mer binding Z-score; higher = stronger binding preference
Whole data set: some 16,000 sequences, median “Z-score” near -0.37, cut for the highest 2% near 3.1. Many of the other results were omitted from the sample, so the highest values are more common in it than they were.
Think of 2 as a floor: if RNAcompete 7-mer binding Z-score stands on it or above, it is y; beneath it, n.

Sample answers from the record:
AGAAAGG y
AAGUGUC n
AACCACA n
UUAGCUC n
UAGAGGG y

// query Given the entry "GAGUAGG" , answer whether its RNAcompete 7-mer binding Z-score meets or surpasses 2.
// result y

// query Exam item: decide whether the reported RNAcompete 7-mer binding Z-score for "CAGUCUU" is at least 2.
// result n

// query Dear colleague, could you confirm whether "GUGGGGG" has RNAcompete 7-mer binding Z-score at or above 2?
// result y

---

# System: RBM10 RRM1-ZnF-RRM2 (GST-tagged construct);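 note: 20 pmol protein with 1.5 nmol RNA pool for 30 min at 4°C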
# protocol-text: RNAcompete 7-mer binding Z-score; higher = stronger binding preference
In all, about 16,000 sequences were measured (“Z-score”: median about -0.37, highest 2% from about 3.1 on). The sample as a whole holds a higher share of the highest values than the screen did.
readout-type: RNAcompete 7-mer binding Z-score
API doc: respond with a numeric literal and nothing else, no unit.

AUAAGGA 2.16
UGGUACA 0.949
AGAAGCU -0.508
UGGGGUC 2.62
GCAGGGG 3.15
GUAAGGC 2.12
CAAAGGG 2.78
GGGUGCG 2.85

Okay, next one:
// query Please list RNAcompete 7-mer binding Z-score recorded for the sequence "CCGGGGA"
// result 1.12

---

# Tested on: RBM10 RRM1-ZnF-RRM2 (GST-tagged construct);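 note: 20 pmol protein with 1.5 nmol RNA pool for 30 min at 4°C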
# protocol-text: RNAcompete 7-mer binding Z-score; higher = stronger binding preference
Over roughly 16,000 sequences, “Z-score” has its median near -0.37; the highest 2% begin near 3.1. Many of the other results were omitted from the sample, so the highest values are more common in it than they were.
Here, each record is paired with measured RNAcompete 7-mer binding Z-score data.
No unit in the answer, only the number.

Sample records with RNAcompete 7-mer binding Z-score:
GUAGGAC 1.86
GGGAUAA 3.36
AGGGUUA 3.86
GGAGGCU 1.29
GCGGGUG 2.75
AUAGGGU 4.33
AUUAUCG -0.402
AGUAUGC 0.0204
AGGGUUC 0.996
CAUUCUC -0.857

// query For the sequence "ACGGGGU" , report RNAcompete 7-mer binding Z-score.
// result 3.8

// query Identify measured RNAcompete 7-mer binding Z-score corresponding to "CCUUGUC"
// result -0.89

// query # return recorded RNAcompete 7-mer binding Z-score for entry "GUUAGGC"
// result 1.25

---

Documented RNAcompete 7-mer binding Z-score across a set of sequences
# Test system: RBM10 RRM1-ZnF-RRM2 (GST-tagged construct);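 note: 20 pmol protein with 1.5 nmol RNA pool for 30 min at 4°C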
# protocol-text: RNAcompete 7-mer binding Z-score; higher = stronger binding preference
In all, about 16,000 sequences were measured (“Z-score”: median about -0.37, highest 2% from about 3.1 on). Only a selection was taken, and the highest values are over-represented in it overall.

Would you please look over these solved cases?
GGGGUCA 3
AUGAGGU 1.83
AAUAUAC -0.26
AUCUUGG -0.311
UUGGUGG 2.09

// query Answer with the recorded RNAcompete 7-mer binding Z-score of "CCUAUAU" only.
// result -0.799

// query Provide RNAcompete 7-mer binding Z-score value for the following sequence: "GAAUGGG"
// result 4.77

// query Item "CGGGUGA" : provide RNAcompete 7-mer binding Z-score
// result 2.55

// query Given the sequence "AAGGUGA" , write its reported RNAcompete 7-mer binding Z-score.
// result 3.62

// query Answer with the recorded RNAcompete 7-mer binding Z-score for the sequence listed here: "CUUCCUU"
// result -0.759

---

# Tested on: RBM10 RRM1-ZnF-RRM2 (GST-tagged construct);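 note: 20 pmol protein with 1.5 nmol RNA pool for 30 min at 4°C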
# protocol-text: RNAcompete 7-mer binding Z-score; higher = stronger binding preference
In all, about 16,000 sequences were measured (“Z-score”: median about -0.37, highest 2% from about 3.1 on). The full list was thinned out, with the highest values kept by preference.
readout-type: RNAcompete 7-mer binding Z-score

Some entries whose results are on file:
UCAAGCU -0.621
GGCGGCA 1.12
AGAUAAG 0.989

// query Please report RNAcompete 7-mer binding Z-score for the following sequence: "UCACAAU"
// result -0.511

// query Please give measured RNAcompete 7-mer binding Z-score of the following entry: "CGAUAUC"
// result -0.5

// query Quick one: give measured RNAcompete 7-mer binding Z-score for "UGUAACU"
// result -0.358

// query Return RNAcompete 7-mer binding Z-score for the following sequence: "UGCAACC"
// result -0.504

// query Please look at this sequence and report its RNAcompete 7-mer binding Z-score: "UAGGGGA"
// result 3.81

// query Give the measured RNAcompete 7-mer binding Z-score for "CACAGGG"
// result 2.49

// query Please look at this sequence and report its RNAcompete 7-mer binding Z-score: "GGGGGAG"
// result 2.6

// query # return recorded RNAcompete 7-mer binding Z-score for input "GCUUAAG"
// result -0.439

// query For "AGAAUGG" , write its RNAcompete 7-mer binding Z-score.
// result 3.51

// query Answer with reported RNAcompete 7-mer binding Z-score of "GAUAUAG"
// result 0.734

// query Given "CAGGGGA" , respond with its RNAcompete 7-mer binding Z-score.
// result 2.8

// query Indicate its recorded RNAcompete 7-mer binding Z-score; the sequence in question is "CAGGGGU"
// result 2.91

// query State, in one line, measured RNAcompete 7-mer binding Z-score of "AUUUUCU"
// result -0.803

// query Tell me measured RNAcompete 7-mer binding Z-score for "GUCCGCA" please.
// result -0.672

// query For the sequence "AACAGGG" , give its reported RNAcompete 7-mer binding Z-score.
// result 3.73

// query Supply recorded RNAcompete 7-mer binding Z-score for "CGAAUAA" here.
// result -0.224

// query Entry "CGAUUAA" needs its RNAcompete 7-mer binding Z-score filled in; supply it.
// result -0.493

// query // Input: "CUUUCCG" . Output its RNAcompete 7-mer binding Z-score only.
// result -0.777
